Taken from patent US5580869A.

Test system: rats
Assay remarks: Diuretic and saluretic activity (urine volume and electrolyte excretion over 6 h), technique of Lipschits et al.
Type: in vivo
Assay setup: rat, 25 mg/kg po, (N) = not statistically significant vs control, read-out: K excretion, treated group/control group ratio
Outcome measure: response vs control in vivo at 25 mg/kg (%)
Respond with the bare value in %.

-- ask Give its response vs control in vivo at 25 mg/kg value. Item: Nc1nc(N)c2nc(-c3ccccc3)c(N)nc2n1 [Triamterene, reference compound]
-- reply 36

-- ask Sample Cc1nc2c(nc1C)N(CCN1CCOCC1)S(=O)(=O)N=C2N [1-(2-morpholinoethyl)-6,7-dimethyl] — what was its response vs control in vivo at 25 mg/kg?
-- reply 112

-- ask Which measured response vs control in vivo at 25 mg/kg value corresponds to Cc1nc2c(nc1C)N(CCO)S(=O)(=O)N=C2N [1-(2-hydroxyethyl)-6,7-dimethyl] ?
-- reply 189

-- ask What value of response vs control in vivo at 25 mg/kg has been reported for the following compound? CCN1c2nc(C(F)(F)F)c(C(F)(F)F)nc2C(N)=NS1(=O)=O [1-ethyl-6,7-bis(trifluoromethyl)]
-- reply 99

-- ask Bench note: what response vs control in vivo at 25 mg/kg did Cc1nc2c(nc1C)N(CCN(C(C)C)C(C)C)S(=O)(=O)N=C2N show?
-- reply 94

-- ask Param item = CCc1nc2c(nc1C)C(N)=NS(=O)(=O)N2CC [1,7-diethyl-6-methyl] ; retrieve measured response vs control in vivo at 25 mg/kg.
-- reply 179

====

Assay remarks: Mortality rate in the mouse after a single oral dose of 1600 mg/kg
Assay setup: in vivo, single oral dose 1600 mg/kg
Outcome measure: mortality (%)
Just the number please, in %, no unit attached.

-- ask GET /values?readout=mortality&item= CCCN1c2nc(C)c(C)nc2C(N)=NS1(=O)=O
-- reply 60

-- ask What value of mortality has been recorded for this entry: CCCc1nc2c(nc1C)C(N)=NS(=O)(=O)N2CC
-- reply 50

-- ask Consider the compound CCc1nc2c(nc1CC)N(CC)S(=O)(=O)N=C2N and give its measured mortality.
-- reply 50

-- ask Entry Cc1nc2c(nc1C)N(CCO)S(=O)(=O)N=C2N [1-(2-hydroxyethyl)-6,7-dimethyl] has what mortality?
-- reply 0

-- ask Entry under review: CCc1nc2c(nc1C)C(N)=NS(=O)(=O)N2C . Reported mortality?
-- reply 0
